The reported numbers originate from paper PMC4483166.

- tested-system: Agrocybe aegerita lectin 2 (AAL2) (Cyclocybe aegerita, UniProt H6CS64)
- Construct: gene aal-2; recombinant AAL2 without any tag, expressed in E. coli BL21 (DE3); 407 amino acid residues
- Sequence (H6CS64 1-407): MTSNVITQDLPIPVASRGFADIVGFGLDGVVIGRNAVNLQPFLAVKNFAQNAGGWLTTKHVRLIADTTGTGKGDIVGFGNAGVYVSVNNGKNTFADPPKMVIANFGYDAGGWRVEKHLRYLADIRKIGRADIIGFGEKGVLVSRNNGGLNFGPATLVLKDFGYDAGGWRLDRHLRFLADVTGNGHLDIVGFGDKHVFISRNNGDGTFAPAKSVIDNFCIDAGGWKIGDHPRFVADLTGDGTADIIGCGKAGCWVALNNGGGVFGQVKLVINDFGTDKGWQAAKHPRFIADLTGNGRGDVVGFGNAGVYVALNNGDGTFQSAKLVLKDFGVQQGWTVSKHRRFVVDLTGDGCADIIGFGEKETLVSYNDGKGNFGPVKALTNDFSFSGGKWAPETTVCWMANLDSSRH
- protocol-summary: crystal structure of the complex ([…] Å) and SPR steady-state affinity
- Assay type: binding
readout-name: pKd
# pKd is unitless: minus log10 of the molar concentration; print number only

*Q* Look up pKd: CC(=O)N[C@@H]1[C@@H](O)[C@H](O)[C@@H](CO)O[C@H]1O [GlcNAc]
*A* 4.55
